Assay system: SMARCA2 (Homo sapiens, UniProt P51531)
Sequence (P51531 whole entry): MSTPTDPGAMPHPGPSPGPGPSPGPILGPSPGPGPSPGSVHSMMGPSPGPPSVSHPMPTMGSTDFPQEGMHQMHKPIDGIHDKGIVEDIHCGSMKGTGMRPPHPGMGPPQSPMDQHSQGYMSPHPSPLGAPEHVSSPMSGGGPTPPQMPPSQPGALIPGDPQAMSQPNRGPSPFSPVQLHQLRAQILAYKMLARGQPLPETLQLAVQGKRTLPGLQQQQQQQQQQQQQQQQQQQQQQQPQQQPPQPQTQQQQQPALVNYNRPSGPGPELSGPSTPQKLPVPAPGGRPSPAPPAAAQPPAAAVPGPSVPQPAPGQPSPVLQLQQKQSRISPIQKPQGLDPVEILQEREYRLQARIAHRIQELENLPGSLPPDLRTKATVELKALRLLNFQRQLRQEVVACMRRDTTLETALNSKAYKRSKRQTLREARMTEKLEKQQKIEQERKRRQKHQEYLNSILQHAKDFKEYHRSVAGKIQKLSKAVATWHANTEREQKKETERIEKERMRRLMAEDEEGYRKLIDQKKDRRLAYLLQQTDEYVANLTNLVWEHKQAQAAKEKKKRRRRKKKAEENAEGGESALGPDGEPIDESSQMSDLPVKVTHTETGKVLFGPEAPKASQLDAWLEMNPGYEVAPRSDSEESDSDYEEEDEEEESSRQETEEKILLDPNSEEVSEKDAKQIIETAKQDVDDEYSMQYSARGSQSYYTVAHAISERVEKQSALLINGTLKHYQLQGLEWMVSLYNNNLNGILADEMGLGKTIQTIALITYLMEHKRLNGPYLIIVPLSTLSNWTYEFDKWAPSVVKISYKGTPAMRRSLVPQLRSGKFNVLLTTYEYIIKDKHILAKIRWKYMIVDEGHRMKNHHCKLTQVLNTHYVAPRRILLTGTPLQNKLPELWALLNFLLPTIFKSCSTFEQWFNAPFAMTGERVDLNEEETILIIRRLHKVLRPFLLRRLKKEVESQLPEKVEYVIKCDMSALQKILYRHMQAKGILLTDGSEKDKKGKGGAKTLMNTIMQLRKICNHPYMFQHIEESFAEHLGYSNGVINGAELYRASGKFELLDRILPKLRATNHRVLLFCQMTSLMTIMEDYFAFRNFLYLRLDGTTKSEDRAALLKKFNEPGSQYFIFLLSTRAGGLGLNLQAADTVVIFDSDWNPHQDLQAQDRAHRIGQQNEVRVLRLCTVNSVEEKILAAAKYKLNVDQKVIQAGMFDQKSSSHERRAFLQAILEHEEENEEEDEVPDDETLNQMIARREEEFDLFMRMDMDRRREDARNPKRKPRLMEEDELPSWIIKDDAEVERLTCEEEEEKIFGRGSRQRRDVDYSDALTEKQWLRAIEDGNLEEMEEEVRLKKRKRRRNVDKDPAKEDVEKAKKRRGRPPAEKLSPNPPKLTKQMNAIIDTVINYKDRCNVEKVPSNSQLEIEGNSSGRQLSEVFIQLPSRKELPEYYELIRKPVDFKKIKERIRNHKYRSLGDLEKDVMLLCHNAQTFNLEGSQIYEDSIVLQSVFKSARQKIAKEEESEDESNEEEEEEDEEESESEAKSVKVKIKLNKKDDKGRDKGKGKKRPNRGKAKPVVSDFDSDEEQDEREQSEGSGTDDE
Experiment description: HiBiT assay for protein degradation, Hela SMARCA2-HiBiT cells (A series);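 also: 24 h compound treatment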
Assay type: cell-based
Parameters: Hela cells were genetically modified via CRISPR/Cas9 to fuse HiBiT to the carboxy terminus of SMARCA2; host or cells: HeLa (CRISPR/Cas9 HiBiT knock-in)
Measurement setup: Hela SMARCA2-HiBiT cells, 24 hours treatment; read-out: SMARC A2 Hela HiBit Dmax (%)
Readings of Dmax for the listed molecules

{"Record smiles": "Cc1ncsc1-c1ccc([C@H](CN2CCOCC2)NC(=O)[C@@H]2C[C@@H](O)CN2C(=O)[C@H](C2CCCCC2)n2cc([C@H]3CC[C@H](CN4CCC(c5ccc6c(c5)-n5c(nc(=O)c7c(Br)cccc75)C65CCCCC5)CC4)CC3)nn2)cc1", "Dmax": "> 90%"}
{"Record smiles": "Cc1ncsc1-c1ccc([C@H](CN2CCOCC2)NC(=O)[C@@H]2C[C@@H](O)CN2C(=O)[C@@H](n2cc([C@H]3C[C@H](CN4CC5(CCC(c6ccc7c(c6)-n6c(nc(=O)c8c(Cl)cccc86)C76CCCCC6)CC5)C4)C3)nn2)C(C)(C)C)cc1", "Dmax": "> 90%"}
{"Record smiles": "COC(=O)C1CCN(C[C@H](NC(=O)[C@@H]2C[C@@H](O)CN2C(=O)[C@@H](n2cc([C@H]3CC[C@H](CN4CCC(c5ccc6c(c5)-n5c(nc(=O)c7c(Cl)cccc75)C65CCCCC5)CC4)CC3)nn2)C(C)(C)C)c2ccc(-c3scnc3C)cc2)CC1", "Dmax": "> 90%"}
{"Record smiles": "Cc1ncsc1-c1ccc([C@H](C)NC(=O)[C@@H]2C[C@@H](O)CN2C(=O)[C@H](C2CCN(C(=O)CCCN3CCC(c4ccc5c(c4)-n4c(nc(=O)c6c(Cl)cccc64)C54CCCCC4)CC3)CC2)n2cc(C3CC3)nn2)cc1", "Dmax": "70 to 90%"}
